System Under Test: T1, recombinant human ErbB3 protein (R&D systems) (human, UniProt P21860 20-643)
T1 construct: Bought recombinant protein; also called HER3
Method Summary: BLI (Octet QK384), human ErbB3 immobilized on AR2G sensor, IgG at 12.5-50 nM
Measurement Name: Kd (pM)

{"Binder": "472S4 (antibody, V domains shown, IgG1 (Selexis 085 vector, CHO)) VH: EVQLLESGGGLVQPGGSLRLSCAASGFTFSWYDIAWVRQAPGKGLEWVSGISYDGGNTYYADSVKGRFTISRDNSKNTLYLQMNSLRAEDTAVYYCARDPSWCLQDLCYYADGMDVWGQGTLVTVSS VL: QSVLTQPPSASGTPGQRVTISCSGSSSNIGSNSVSWYQQLPGTAPKLLIYADSNRPSGVPDRFSGSKSGTSASLAISGLRSEDEADYYCGSWDYSLSGYVFGGGTKLTVLG", "Measurement Name": "Kd", "Value Qualifier": "=", "Observed Value": 9.41}
{"Binder": "451M4 (antibody, V domains shown, IgG1 (Selexis 085 vector, CHO)) VH: EVQLLESGGGLVQPGGSLRLSCAASGFTFSYYDMSWVRQAPGKGLEWVSAIYYDSGSIYYADSAKGRFTISRDNSKNTLYLQMNSLRAEDTAVYYCAKDRLFASDSTFDYWGQGTLVTVSS VL: QSVLTQPPSASGTPGQRVTISCSGSPSNIGNNSVTWYQQLPGTAPKLLIYYDSHRPSGVPDRFSGSKSGTSASLAISGLRSEDEADYYCGSWDASLNGYVFGGGTKLTVLG", "Measurement Name": "Kd", "Value Qualifier": "=", "Observed Value": 6.12}
{"Binder": "451M3 (antibody, V domains shown, IgG1 (Selexis 085 vector, CHO)) VH: EVQLLESGGGLVQPGGSLRLSCAASGFTFSHYDMSWVRQAPGKGLEWVSAIYYDSGSIYYADSAKGRFTISRDNSKNTLYLQMNSLRAEDTAVYYCAKDRLFASDSTFDYWGQGTLVTVSS VL: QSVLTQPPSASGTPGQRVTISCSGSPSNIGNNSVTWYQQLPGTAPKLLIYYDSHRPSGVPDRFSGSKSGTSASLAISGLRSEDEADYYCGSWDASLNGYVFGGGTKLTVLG", "Measurement Name": "Kd", "Value Qualifier": "<", "Observed Value": 1}
{"Binder": "442M10 (antibody, V domains shown, IgG1 (Selexis 085 vector, CHO)) VH: EVQLLESGGGLVQPGGSLRLSCAASGFTFSDYDMSWVRQAPGKGLEWVSSIYPDSGSTDYADSVQGRFTISRDNSKNTLYLQMNSLRAEDTAVYYCAKDLHMWPEGPFDYWGQGTLVTVSS VL: QSVLTQPPSASGTPGQRVTISCSGSSSNIGSNSVSWYQQLPGTAPKLLIYADNFRPSGVPDRFSGSKSGTSASLAISGLRSEDEADYYCAAWDSSLSGYVFGGGTKLTVLG", "Measurement Name": "Kd", "Value Qualifier": "<", "Observed Value": 1}
{"Binder": "442M5 (antibody, V domains shown, IgG1 (Selexis 085 vector, CHO)) VH: EVQLLESGGGLVQPGGSLRLSCAASGFTFSDYDMSWVRQAPGKGLEWVSTIDLDSGSIYYADSVQGRFTISRDNSKNTLYLQMNSLRAEDTAVYYCAKDLHMGPEGPFDYWGQGTLVTVSS VL: QSVLTQPPSASGTPGQRVTISCSGSSSNIGSNSVSWYQQLPGTAPKLLIYSDNHRPSGVPDRFSGSKSGTSASLAISGLRSEDEADYYCHAWDSSLWGDVFGGGTKLTVLG", "Measurement Name": "Kd", "Value Qualifier": "<", "Observed Value": 1}
